# Tested on: BaF3-FLT3 [ITD]
# ASSAY OVERVIEW: Cell proliferation, Cell Titer-Glo, GI50
# Format: cell-based
# ASSAY CONTEXT: Mus musculus, Ba/F3 FLT3-ITD, 72 hours
The entries below come with measured GI50 values attached.
Report as a plain number; the unit nM is understood.

Find the recorded GI50 belonging to CCN1CCN(Cc2ccc(-c3nn(-c4ccc(NC(=O)Nc5cc(C(C)(C)C)on5)cc4)c4ncnc(N)c34)cc2)CC1 [Compound 20] and report it.
0.9

Would you mind telling me what GI50 value was observed for CC(C)(C)c1cc(NC(=O)Nc2ccc(-n3nc(-c4ccc(NS(C)(=O)=O)cc4)c4c(N)ncnc43)cc2)no1 [Compound 27] ?
1

What measured GI50 goes with CC(C)CNC(=O)Nc1ccc(-n2nc(-c3ccc(OCCN4CCOCC4)cc3)c3c(N)ncnc32)cc1 [Compound 4] ?
1100

Reported GI50 for CC(C)(C)c1cc(NC(=O)Nc2ccc(-n3nc(-c4cccnc4)c4c(N)ncnc43)cc2)no1 [Compound 26] : what is it?
0.7
